test system: HCT-8; test: Antiproliferative activity against human HCT-8 cells assessed as cell growth inhibition by MTT assay; assay type: functional, cell-based
quantity: IC50 (µM)
The answer is to be given in µM; state only the numeric part.

Inquiry: What IC50 value was documented for this molecule, C/C=C(/C)C(=O)OC[C@H]1C2=C(C[C@H]3[C@H]4C5=C(C[C@@H](C(=O)N13)N4C)C(=O)C(C)=C(OC)C5=O)C(=O)C(C)=C(OC)C2=O [(-)-RENIERAMYCIN G] ?
Reply text: 3.5

----------
test system: HCT-116; assay: Antiproliferative activity against human HCT-116 cells assessed as cell growth inhibition by MTT colorimetric assay; type: functional, cell-based
Hi there, I'd appreciate the recorded pIC50 for every entry that follows.
Convention used: pIC50 is expressed as -log10 of the molar concentration.

Inquiry: Recorded pIC50 for C/C=C(/C)C(=O)OC[C@H]1C2=C(C[C@H]3[C@H]4C5=C(C[C@@H]([C@H](C#N)N13)N4C)C(=O)C(C)=C(OC)C5=O)C(=O)C(C)=C(OC)C2=O [RENIERAMYCIN M] , please?
Reply text: 7.79

Inquiry: Recorded pIC50 of CCC(=O)OC[C@H]1C2=C(C[C@H]3[C@H]4C5=C(C[C@@H]([C@H](C#N)N13)N4C)C(=O)C(C)=C(OC)C5=O)C(=O)C(C)=C(OC)C2=O [JORUNNAMYCIN C] , please.
Reply text: 7.56
